- System: JEG-3
- experiment_notes: Primary qHTS to identify gynecologic anti-cancer compounds using libraries of approved drugs and bioactive compounds (AID 1345084); further: on the % scale 0 is the no-effect control and ±100 the full control effect; nearly all actives have a fitted effect of over 55% in size
- measurement_parameters: Gynecologic cancer cell panel viability, ATPlite luminescence, 48 h; series mostly up to 57.5 µM
Results filed as inconclusive are left out. Activity calls are given as the source filed them. The call rests on the fitted dose curve; in most records, active means well fitted cell-killing curve with a large enough effect; inconclusive means small, poorly fitted or top-dose-only effect, or effect the other way; inactive means flat fitted curve, though single readings scatter.
property: activity change, negative = cytotoxicity

See these solved cases before continuing.
compound	result
COc1ccc(CC(=O)NCc2ccccc2-c2ccccc2C(=O)NCCc2cccnc2)cc1	inactive
C=C1CC/C=C(/CO)C(=O)C[C@@H]2[C@@H]1C[C@@]2(C)COC(C)=O	inactive
COC(=O)C1C(c2ccc(O)cc2)C(C(=O)O)C1c1ccc(O)cc1 (configuration not stated)	inactive
COC(=O)C1=CO[C@@H](O[C@@H]2O[C@H](CO)[C@@H](O)[C@H](O)[C@H]2O)[C@@H]2[C@@H](C)[C@@H](O)C(O)[C@H]12 (some centres not stated)	inactive
FC(F)(F)Oc1ccc(-c2ccc3nnc(C(F)(F)F)n3c2)cc1	inactive
C/C=C(\C)C(=O)OC[C@H]1O[C@H](O[C@H]2O[C@H](CO)[C@@H](O)[C@H](O)[C@H]2O[C@@H]2O[C@H](CO)[C@@H](O)[C@H](O)[C@H]2O)[C@H](O[C@@H]2O[C@H](CO)[C@@H](O)[C@H](O)[C@H]2O)[C@@H](O)[C@@H]1O	inactive
CCC(C)C1NC(=O)C2C(C)CCN2C(=O)C(CC(O)CO)OC(=O)CCNC(=O)C(C)N(C)C(=O)C(C(C)C)N(C)C1=O (configuration not stated)	inactive
CC(=O)/C=C/C1(O)C(C)CC(O[C@@H]2O[C@H](CO)[C@@H](O)[C@H](O)[C@H]2O)CC1(C)C (some centres not stated)	inactive

Looking for the measured activity change, negative = cytotoxicity of "O=C(Nc1ccn(Cc2c(F)cccc2C(F)(F)F)n1)c1c(F)cccc1F" , can you help?
9.68% [at 11.6 µM] (inactive)

Also "OC[C@H]1O[C@@H](OCCc2ccccc2)[C@H](O)[C@@H](O)[C@@H]1O" , if possible.
inactive

Also COc1cccc(CN(C(=O)CC(C)(C)C)C2CC(C(=O)N3CCNCC3)N(Cc3ccc4c(c3)OCO4)C2)c1 (configuration not stated) , if possible.
inactive

Also "Fc1cccc(CN(C2=NCCN2)c2c(Cl)cccc2Cl)c1" , if possible.
inactive
